Please go through the items and note down their pIC50.
Biological target: UniProt P78527
Assay: DNA-PK phosphorylation at serine 2056 (cellular), bleomycin-treated HCT116 cells, ELISA
Format: cell-based
Details: Table 5; HCT116 cells; read-out: IC50 pDNA-PK
Description: HCT116 cells were cultivated at 37° C. and 10% CO2 in MEM alpha medium with 10% of foetal calf serum and 2 mM glutamine. The cells were detached from the base of the culture vessels with the aid of trypsin/EDTA, centrifuged off in centrifuge tubes, taken up in fresh medium, and the cell density was determined. […] The development of the enzymatic reaction was carried out with the aid of a chemiluminescent reagent, the chemiluminescence was measured with the aid of a Mithras LB940. […]
pIC50: −log10 of the molar value.

Recorded pIC50, per entry:
# OC(c1cnc(F)c(-c2ncnc3cc(N4CCOCC4)ccc23)c1)c1nccs1 (stereo not drawn) [Example 188] with UniProt P78527: pIC50 is 5.00 to 5.30

UniProt P78527 data for OC(c1cc(F)cc(-c2ncnc3cc(N4CCOCC4)ccc23)c1)c1nccs1 (stereo not drawn) ; its pIC50: 4.52 to 5.00

Reading of pIC50 for OC(c1ccc(F)c(-c2ncnc3cc(N4CCOCC4)sc23)c1)c1nccs1 (stereo not drawn) [Example 146] with UniProt P78527: 5.30 to 6.30

Log: UniProt P78527, molecule CNCc1csc(C(O)c2cc(-c3ncnc4cc(N5CCOCC5)ccc34)c(F)cc2Cl)n1 (stereo not drawn) , pIC50 = 5.00 to 5.30

Per the reported UniProt P78527 data, Cc1nc(C(O)c2cnc(F)c(-c3ncnc4cc(N5CCOCC5)ncc34)c2)sc1C (stereo not drawn) [Example 196] has pIC50 of 4.52 to 5.00

Need pIC50 for each of these molecules.
1. OC(c1nccs1)c1cc(-c2ncnc3cc(N4CCOCC4)ccc23)ccc1F (stereo not drawn)
2. OCc1csc([C@@H](O)c2cc(-c3ncnc4cc(N5CCOCC5)ccc34)c(F)cc2Cl)n1

Response given:
["5.00 to 5.30", "5.30 to 6.30"]

---

molecular target: DNA-PK (Homo sapiens (Human), UniProt P78527); test: DNA-PK assay (biochemical), flashplate 33P-ATP kinase assay; settings: biochemical DNA-PK assay
pIC50: −log10 of the molar value.
Kindly state pIC50 for each of the entries shown.

For this compound ( OC(c1ccc(F)c(-c2ncnc3cc(N4CCOCC4)ccc23)c1)c1nccn2cccc12 (stereo not shown) ), measured pIC50 is > 8.52

Quick note, pIC50 for OC(c1cc(-c2ncnc3cc(N4CCOCC4)ccc23)ccc1F)c1cccc2nncn12 (stereo not shown) landed at 8.15 to 8.52

The reported value for OC(c1cc(-c2ncnc3cc(N4CCOCC4)ccc23)ccc1F)c1ncnc2ccoc12 (stereo not shown) in terms of pIC50 is > 8.52

For record OC(c1ccc(F)c(-c2ncnc3cc(N4CCOCC4)ccc23)c1)c1nccnc1OC(F)F (stereo not shown) the listed pIC50 is 8.15 to 8.52

Batch request: pIC50 per item, same order as input.
1. Cn1c(C(O)c2cc(-c3ncnc4cc(N5CCOCC5)ccc34)c(F)cc2Cl)nccc1=O (stereo not shown)
2. Cc1cnc(C(C(N)=O)c2ccc(F)c(-c3ncnc4cc(N5CCOCC5)ccc34)c2)c(C)n1 (stereo not shown)
3. COc1cncnc1C(O)c1cc(-c2ncnc3cc(N4CCOCC4)ccc23)c(F)cc1Cl (stereo not shown)
4. Cn1ncc2c(C(O)c3cc(-c4ncnc5cc(N6CCOCC6)ccc45)c(F)cc3Cl)ncnc21 (stereo not shown)
5. COc1ccc(C(C(N)=O)c2cc(-c3ncnc4cc(N5CCOCC5)sc34)c(F)cc2Cl)nn1 (stereo not shown)
6. Cc1cnc(C(O)c2cc(-c3ncnc4cc(N5CCOCC5)ccc34)c(F)cc2F)c(C)n1 (stereo not shown)

Response given:
["7.52 to 8.15", "7.52 to 8.15", "> 8.52", "8.15 to 8.52", "8.15 to 8.52", "8.15 to 8.52"]

Hi there! I need pIC50 for each item below, if you can.
1. Cn1ncc2c(C(O)c3ccc(F)c(-c4ncnc5cc(N6CCOCC6)ccc45)c3)ncnc21 (stereo not shown)
2. Cc1nccnc1[C@@H](O)c1ccc(F)c(-c2ncnc3cc(N4CCOCC4)cc(F)c23)c1
3. Cc1cccnc1C(O)c1ccc(F)c(-c2ncnc3cc(N4CCOCC4)ccc23)c1 (stereo not shown)
4. Cn1c(C(O)c2cc(-c3ncnc4cc(N5CCOCC5)ccc34)ccc2Cl)cccc1=O (single isomer, unassigned) [Example 363]
5. OC(c1cc(-c2ncnc3cc(N4CCOCC4)ccc23)ccc1F)c1ncnc2ccsc12 (stereo not shown)

Response given:
["8.15 to 8.52", "8.15 to 8.52", "8.15 to 8.52", "7.52 to 8.15", "> 8.52"]

The recorded pIC50 for COc1nccnc1C(C(N)=O)c1cc(-c2ncnc3cc(N4CCOCC4)ccc23)c(F)cc1F (stereo not shown) is 7.52 to 8.15

---

target: DNA-PK phosphorylation at serine 2056 (Homo sapiens (Human)); assay: DNA-PK phosphorylation at serine 2056 (cellular), bleomycin-treated HCT116 cells, ELISA; format: cell-based; conditions: cellular; HCT116 cells, 10 μM bleomycin, six hours; read-out: IC50 pDNA-PK
metric: IC50

Consider the following illustrative entries.
Recorded result, OC(c1cccnn1)c1cc(-c2ncnc3cc(N4CCOCC4)ccc23)c(F)cc1Cl (single isomer, unassigned) [Example 29] , IC50: 10 to 30 µM

According to the records, this molecule Cc1cc(F)c(-c2ncnc3cc(N4CCOCC4)ccc23)cc1C(O)c1nccs1 (centres unmarked) [Example 207] displays IC50 of 0.5 to 5 µM

The value of IC50 measured for the molecule C#Cc1nc(-c2cc(C(O)c3nccs3)ccc2F)c2ccc(N3CCOCC3)cc2n1 (centres unmarked) [Example 216] turned out to be 10 to 30 µM

Item: CCOc1ccc(C(O)c2ccc(F)c(-c3ncnc4cc(N5CCOCC5)ccc34)c2)nn1 (centres unmarked) | IC50: 0.5 to 5 µM

For reference, reported IC50 for N#Cc1ccc(C(O)c2cc(-c3ncnc4cc(N5CCOCC5)ccc34)c(F)cc2Cl)nn1 (centres unmarked) stands at 0.5 to 5 µM

Note to self: IC50 recorded for COc1ccc(C(O)c2cc(-c3ncnc4cc(N5CCOCC5)ccc34)c(F)cc2F)cc1 (centres unmarked) was 0.5 to 5 µM

Please supply IC50 for each of the following items, keeping them in order.
1. COC(=O)COc1ccc(C(O)c2cc(-c3ncnc4cc(N5CCOCC5)ccc34)c(F)cc2Cl)nn1 (centres unmarked)
2. COc1cc(C)c(C(O)c2cc(-c3ncnc4cc(N5CCOCC5)ccc34)c(F)cc2Cl)nn1 (centres unmarked)

Response given:
1. 10 to 30 µM
2. 5 to 10 µM

---

target: Kv11.1 (hERG) (Homo sapiens (Human), UniProt Q12809); assay: Kv11.1 (hERG) ion channel activity (patch clamp assay), HEK293 cells transfected with hERG gene; settings: read-out: Ki [Kv1.11 hERG]; patch clamp, HEK293 transfected with hERG gene
Sequence (Q12809 whole entry): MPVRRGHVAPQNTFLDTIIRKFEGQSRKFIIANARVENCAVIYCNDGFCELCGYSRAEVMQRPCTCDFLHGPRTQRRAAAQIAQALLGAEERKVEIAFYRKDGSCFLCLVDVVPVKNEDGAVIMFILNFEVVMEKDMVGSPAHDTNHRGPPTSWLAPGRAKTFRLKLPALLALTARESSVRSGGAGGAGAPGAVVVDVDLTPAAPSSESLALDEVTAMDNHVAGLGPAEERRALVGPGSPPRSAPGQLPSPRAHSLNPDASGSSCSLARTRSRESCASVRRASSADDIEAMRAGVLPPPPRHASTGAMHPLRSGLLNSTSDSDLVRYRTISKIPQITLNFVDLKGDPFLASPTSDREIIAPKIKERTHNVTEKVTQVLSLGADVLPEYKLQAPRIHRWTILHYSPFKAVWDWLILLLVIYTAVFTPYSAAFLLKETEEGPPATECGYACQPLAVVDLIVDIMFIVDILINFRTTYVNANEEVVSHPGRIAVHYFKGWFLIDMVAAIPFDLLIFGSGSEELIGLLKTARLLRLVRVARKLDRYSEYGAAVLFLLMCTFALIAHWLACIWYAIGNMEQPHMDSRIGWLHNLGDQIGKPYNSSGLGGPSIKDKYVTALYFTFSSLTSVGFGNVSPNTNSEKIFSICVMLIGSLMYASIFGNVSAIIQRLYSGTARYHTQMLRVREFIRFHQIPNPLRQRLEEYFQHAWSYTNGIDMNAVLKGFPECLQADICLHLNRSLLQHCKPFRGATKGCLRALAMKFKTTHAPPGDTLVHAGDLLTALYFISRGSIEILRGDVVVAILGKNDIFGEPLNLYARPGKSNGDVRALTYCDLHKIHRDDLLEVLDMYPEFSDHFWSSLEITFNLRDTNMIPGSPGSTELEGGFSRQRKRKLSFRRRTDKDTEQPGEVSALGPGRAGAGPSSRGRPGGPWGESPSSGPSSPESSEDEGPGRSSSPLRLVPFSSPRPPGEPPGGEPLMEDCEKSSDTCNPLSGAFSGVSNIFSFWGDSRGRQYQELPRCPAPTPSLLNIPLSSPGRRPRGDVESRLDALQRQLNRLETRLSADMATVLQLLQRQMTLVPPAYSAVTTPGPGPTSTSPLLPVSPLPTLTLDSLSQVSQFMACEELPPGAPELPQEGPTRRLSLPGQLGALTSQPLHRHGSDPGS
pKi: −log10 of the molar value.
Field: pKi. Provide a value for each of the compounds that follow.

Need pKi for each of these compounds.
1. COc1cc(Cl)nnc1C(O)c1ccc(F)c(-c2ncnc3cc(N4CCOCC4)ccc23)c1 (stereo not shown)
2. N#CCCOc1ccc(C(O)c2cc(-c3ncnc4cc(N5CCOCC5)ccc34)c(F)cc2Cl)nn1 (stereo not shown)
3. COC(=O)COc1ccc(C(O)c2cc(-c3ncnc4cc(N5CCOCC5)ccc34)c(F)cc2Cl)nn1 (stereo not shown)
4. CN(C)c1ccc(C(O)c2ccc(F)c(-c3ncnc4cc(N5CCOCC5)ccc34)c2)nn1 (stereo not shown)
5. OC(c1ccc2nccn2n1)c1cc(-c2ncnc3cc(N4CCOCC4)ccc23)c(F)cc1Cl (stereo not shown) [Example 63]

Response given:
["< 4.60", "< 4.60", "< 4.60", "< 4.60", "4.82 to 5.00"]

// each compound listed below needs its pKi
1. OC(c1ccc(F)c(-c2ncnc3cc(N4CCOCC4)ccc23)c1)c1cnccn1 (stereo not shown)
2. OC(c1cc(-c2ncnc3cc(N4CCOCC4)ccc23)c(F)cc1F)c1ncnc2sccc12 (stereo not shown)
3. COc1nccnc1C(O)c1ccc(F)c(-c2ncnc3cc(N4CCOCC4)ccc23)c1 (stereo not shown) [Example 38]
4. NC(=O)COc1ccc(C(O)c2cc(-c3ncnc4cc(N5CCOCC5)ccc34)c(F)cc2Cl)nn1 (stereo not shown)
5. C#Cc1nc(-c2cc(C(O)c3nccs3)ccc2F)c2ccc(N3CCOCC3)cc2n1 (stereo not shown) [Example 208]
6. COc1ccc(C(O)c2cc(-c3ncnc4cc(N5CCOCC5)ccc34)c(F)cc2F)cc1 (stereo not shown)
7. OC(c1ccnnc1)c1cc(-c2ncnc3cc(N4CCOCC4)ccc23)c(F)cc1Cl (stereo not shown)

Response given:
> 5.00
< 4.60
< 4.60
< 4.60
> 5.00
> 5.00
< 4.60
